# experimental-details: in vivo
# study-conditions: Sprague-Dawley, rat, ip, 0.3 mg/kg
measured-property: concentration at 24 h
# include the unit after the value

Param item = CC(C)(C)CC(=O)Nc1ccc(NCc2ccc(C(F)(F)F)cc2)c(F)c1N [compound 60] ; retrieve measured concentration at 24 h. 0 ng/mL

====

# experimental-details: in vivo
# study-conditions: Sprague-Dawley, rat, ip, 0.3 mg/kg
measured-property: half-life (h)
Reply with just the number (in h).

Param item = CC(C)(C)CC(=O)Nc1ccc(NCc2ccc(C(F)(F)F)cc2)c(F)c1N [compound 60] ; retrieve measured half-life. 16.9

====

# experimental-details: in vivo
# study-conditions: male, C57Bl/6, mouse, in vivo, ip, 1 mg/kg
measured-property: Kp at 1 h
I only need the number, thanks.

Param item = CC(C)(C)CC(=O)Nc1ccc(NCc2ccc(C(F)(F)F)cc2)c(F)c1N ; retrieve measured Kp at 1 h. 40.4

====

# experimental-system: Kv7.2/Kv7.3 channels (Homo sapiens, UniProt O43525+O43526)
# experimental-details: Whole-cell patch-clamp electrophysiology in CHO cells expressing Kv7.2/Kv7.3
# Type: cell-based
# Parameters: expressed in transfected cells; host or cells: CHO cells, transient transfection (pcDNA3.1, Lipofectamine 2000)
# study-conditions: dose-response 0.01–30 μM; read-out: ΔV1/2 EC50
Assignment: determine reported pEC50 for the given compounds.
pEC50 (log units): -log10 of the concentration in mol/L.

Param item = CC(C)(C)CC(=O)Nc1ccc(NCc2ccc(C(F)(F)F)cc2)c(F)c1N [compound 60] ; retrieve measured pEC50. 6.82

Param item = CCOC(=O)Nc1ccc(NCc2ccc(C(F)(F)F)cc2)c(F)c1N [RL-81] ; retrieve measured pEC50. 6.62

====

Assignment: determine reported % Degradation (3h, UV) for the given molecules.
# experimental-details: Photostability under UV-visible light with HPLC analysis (degradation, dimer formation)
# Assay type: physicochemical
# study-conditions: 10 μM, buffered aqueous solution pH 7.4, 3 h UV-visible light; ± SD
Reply with just the number (in %).

Param item = CC(C)(C)CC(=O)Nc1ccc(NCc2ccc(C(F)(F)F)cc2)cc1N ; retrieve measured % Degradation (3h, UV). 79.8

Param item = CCCCCCC(=O)Nc1ccc(NCc2ccccc2)cc1N ; retrieve measured % Degradation (3h, UV). 19.5

Param item = CCCCCCCC(=O)Nc1ccc(NCc2ccc(C(F)(F)F)cc2)cc1N ; retrieve measured % Degradation (3h, UV). 73.2

Param item = CN(Cc1ccc(C(F)(F)F)cc1)c1ccc(NC(=O)CC(C)(C)C)c(N)c1 ; retrieve measured % Degradation (3h, UV). 99.5

====

# experimental-details: Lipophilicity (log P)
measured-property: logP
I only need the number, thanks.

Param item = C#CCN(Cc1ccc(F)cc1)c1ccc(NC(=O)OCC)c(N)c1 ; retrieve measured logP. 3.48

Param item = CC(C)(C)CC(=O)Nc1ccc(NCc2ccc(C(F)(F)F)cc2)c(F)c1N ; retrieve measured logP. 4.74

====

# experimental-details: in vivo
# study-conditions: male, C57Bl/6, mouse, in vivo, ip, 1 mg/kg, Plasma concentration
measured-property: concentration at 60 min (ng/g)
Reply with just the number (in ng/g).

Param item = CC(C)(C)CC(=O)Nc1ccc(NCc2ccc(C(F)(F)F)cc2)c(F)c1N ; retrieve measured concentration at 60 min. 18200

====

# experimental-details: in vivo
# study-conditions: Sprague-Dawley, rat, ip, 0.3 mg/kg
measured-property: concentration at 4 h (ng/mL)
Reply with just the number (in ng/mL).

Param item = CC(C)(C)CC(=O)Nc1ccc(NCc2ccc(C(F)(F)F)cc2)c(F)c1N ; retrieve measured concentration at 4 h. 6.8

====

Assignment: determine reported Slope of the fluorescent signal at 10 μM for the given molecules.
# experimental-system: Kv7.2/Kv7.3 channels (Homo sapiens, UniProt O43525+O43526)
# experimental-details: FluxOR thallium-sensitive fluorescence-based assay in CHO cells stably expressing Kv7.2 + Kv7.3
# Format: cell-based
# Set-up: expressed in transfected cells
# study-conditions: 10 μM; initial slope of FluxOR signal between 5 and 15 s; mean ± SEM

Param item = CCCCCCCCCCCC(=O)Nc1ccc(NCc2ccc(C(F)(F)F)cc2)cc1N [compound 16] ; retrieve measured Slope of the fluorescent signal at 10 μM. 0.0084±0.0004

Param item = Nc1cc(NCc2ccc(C(F)(F)F)cc2)ccc1NC(=O)C1CC1 [compound 18] ; retrieve measured Slope of the fluorescent signal at 10 μM. 0.0346±0.0078

Param item = CCCCCCC(=O)Nc1ccc(OCc2ccc(C(F)(F)F)cc2)cc1N [compound 31] ; retrieve measured Slope of the fluorescent signal at 10 μM. 0.0057±0.0005

Param item = CCOC(=O)Nc1ccc(NCc2ccc(C(F)(F)F)cc2)c(F)c1N [RL-81] ; retrieve measured Slope of the fluorescent signal at 10 μM. 0.0272±0.0014

Param item = CC(C)(C)CC(=O)Nc1ccc(NCc2ccc(C(F)(F)F)cc2)cc1N1CCCCC1 [compound 24] ; retrieve measured Slope of the fluorescent signal at 10 μM. 0.0591±0.0043

Param item = CN(Cc1ccc(C(F)(F)F)cc1)c1ccc(NC(=O)CC(C)(C)C)c(N)c1 [compound 26] ; retrieve measured Slope of the fluorescent signal at 10 μM. 0.0721±0.0034

Param item = CCCCCCCCCC(=O)Nc1ccc(NCc2ccc(C(F)(F)F)cc2)cc1N [compound 15] ; retrieve measured Slope of the fluorescent signal at 10 μM. 0.0261±0.0030

Param item = CC(C)(C)CC(=O)Nc1ccc(NCc2ccc(C(F)(F)F)cc2)c(F)c1N [compound 60] ; retrieve measured Slope of the fluorescent signal at 10 μM. 0.0594±0.0026

Param item = CCCCCCC(=O)Nc1ccc(NCc2ccc(O)cc2)cc1N [compound 57] ; retrieve measured Slope of the fluorescent signal at 10 μM. 0.0068±0.0003

Param item = COCCOCC(=O)Nc1ccc(NCc2ccc(C(F)(F)F)cc2)cc1N [compound 20] ; retrieve measured Slope of the fluorescent signal at 10 μM. 0.0062±0.0005

Param item = CCCCCCC(=O)Nc1ccc(NCc2ccncc2)cc1N [compound 51] ; retrieve measured Slope of the fluorescent signal at 10 μM. 0.0063±0.0002

Param item = CCCCCCNC(=O)c1ccc(NCc2ccc(C(F)(F)F)cc2)cc1N [compound 71] ; retrieve measured Slope of the fluorescent signal at 10 μM. 0.0066±0.0006

Param item = CC(C)(C)CC(=O)Nc1ccc(NCc2ccc(C(F)(F)F)cc2)cc1N1CCCC1 [compound 23] ; retrieve measured Slope of the fluorescent signal at 10 μM. 0.0772±0.0036

Param item = Nc1cc(NCc2ccc(C(F)(F)F)cc2)ccc1NC(=O)CCC1CCCCC1 [compound 19] ; retrieve measured Slope of the fluorescent signal at 10 μM. 0.0452±0.0077

Param item = CCCCCCC(=O)Nc1ccc(NCc2ccc(C(F)(F)F)cc2)cc1N [compound 13] ; retrieve measured Slope of the fluorescent signal at 10 μM. 0.0443±0.0049

Param item = CCCCCCC(=O)Nc1ccc(N(C)Cc2ccc(C(F)(F)F)cc2)cc1N [compound 25] ; retrieve measured Slope of the fluorescent signal at 10 μM. 0.0637±0.0033

Param item = CCCCCCC(=O)Nc1ccc(NCc2ccccc2F)cc1N [compound 52] ; retrieve measured Slope of the fluorescent signal at 10 μM. 0.0448±0.0035

Param item = CC(C)(C)CC(=O)Nc1ccc(CCc2ccc(C(F)(F)F)cc2)cc1N [compound 68] ; retrieve measured Slope of the fluorescent signal at 10 μM. 0.0073±0.0005

Param item = CCCCCCC(=O)Nc1ccc(NCc2ccccn2)cc1N [compound 47] ; retrieve measured Slope of the fluorescent signal at 10 μM. 0.0071±0.0004

Param item = CCCCCCC(=O)Nc1ccc(NCc2ccc(C(F)(F)F)cc2)cc1 [compound 2] ; retrieve measured Slope of the fluorescent signal at 10 μM. 0.0326±0.0063

Param item = CC(C)(C)CC(=O)Nc1ccc(NCc2ccc(C(F)(F)F)cc2)cc1N [compound 17] ; retrieve measured Slope of the fluorescent signal at 10 μM. 0.0512±0.0040

Param item = CCCCCCC(=O)Nc1ccc(N(CCC)Cc2ccc(C(F)(F)F)cc2)cc1N [compound 27] ; retrieve measured Slope of the fluorescent signal at 10 μM. 0.0363±0.0052

Param item = CCCCCCC(=O)Nc1ccc(N(Cc2ccc(C(F)(F)F)cc2)C(C)=O)cc1N [compound 28] ; retrieve measured Slope of the fluorescent signal at 10 μM. 0.0138±0.0024

Param item = CCCCCCC(=O)Nc1ccc(NCc2ccc(C(F)(F)F)cc2)c(F)c1N [compound 59] ; retrieve measured Slope of the fluorescent signal at 10 μM. 0.0345±0.0026

Param item = CCCCCCCC(=O)Nc1ccc(NCc2ccc(C(F)(F)F)cc2)cc1N [compound 14] ; retrieve measured Slope of the fluorescent signal at 10 μM. 0.0563±0.0039

Param item = CCCCCCC(=O)Nc1ccc(NCCc2ccc(F)cc2)cc1N [compound 42] ; retrieve measured Slope of the fluorescent signal at 10 μM. 0.0098±0.0010

Param item = CCOC(=O)Nc1ccc(NCc2ccc(F)cc2)cc1N [RET, retigabine] ; retrieve measured Slope of the fluorescent signal at 10 μM. 0.0270±0.0052

Param item = CCCCCCC(=O)Nc1ccc(NCc2ccccc2)cc1N [compound 41] ; retrieve measured Slope of the fluorescent signal at 10 μM. 0.0476±0.0030

Param item = CC(C)(C)CC(=O)Nc1ccc(NCc2c(F)cccc2F)cc1N [compound 43] ; retrieve measured Slope of the fluorescent signal at 10 μM. 0.0534±0.0028

Data provenance: paper PMC9421656
